Each recorded value in this set is attributed to patent US20250263489A1.

target: IGF-1 receptor on the cells of the PathHunter IGF1R Functional Assay (DiscoverX) (UniProt P08069 31-1367); test: cell-based or functional assay
Sequence (P08069 31-1367): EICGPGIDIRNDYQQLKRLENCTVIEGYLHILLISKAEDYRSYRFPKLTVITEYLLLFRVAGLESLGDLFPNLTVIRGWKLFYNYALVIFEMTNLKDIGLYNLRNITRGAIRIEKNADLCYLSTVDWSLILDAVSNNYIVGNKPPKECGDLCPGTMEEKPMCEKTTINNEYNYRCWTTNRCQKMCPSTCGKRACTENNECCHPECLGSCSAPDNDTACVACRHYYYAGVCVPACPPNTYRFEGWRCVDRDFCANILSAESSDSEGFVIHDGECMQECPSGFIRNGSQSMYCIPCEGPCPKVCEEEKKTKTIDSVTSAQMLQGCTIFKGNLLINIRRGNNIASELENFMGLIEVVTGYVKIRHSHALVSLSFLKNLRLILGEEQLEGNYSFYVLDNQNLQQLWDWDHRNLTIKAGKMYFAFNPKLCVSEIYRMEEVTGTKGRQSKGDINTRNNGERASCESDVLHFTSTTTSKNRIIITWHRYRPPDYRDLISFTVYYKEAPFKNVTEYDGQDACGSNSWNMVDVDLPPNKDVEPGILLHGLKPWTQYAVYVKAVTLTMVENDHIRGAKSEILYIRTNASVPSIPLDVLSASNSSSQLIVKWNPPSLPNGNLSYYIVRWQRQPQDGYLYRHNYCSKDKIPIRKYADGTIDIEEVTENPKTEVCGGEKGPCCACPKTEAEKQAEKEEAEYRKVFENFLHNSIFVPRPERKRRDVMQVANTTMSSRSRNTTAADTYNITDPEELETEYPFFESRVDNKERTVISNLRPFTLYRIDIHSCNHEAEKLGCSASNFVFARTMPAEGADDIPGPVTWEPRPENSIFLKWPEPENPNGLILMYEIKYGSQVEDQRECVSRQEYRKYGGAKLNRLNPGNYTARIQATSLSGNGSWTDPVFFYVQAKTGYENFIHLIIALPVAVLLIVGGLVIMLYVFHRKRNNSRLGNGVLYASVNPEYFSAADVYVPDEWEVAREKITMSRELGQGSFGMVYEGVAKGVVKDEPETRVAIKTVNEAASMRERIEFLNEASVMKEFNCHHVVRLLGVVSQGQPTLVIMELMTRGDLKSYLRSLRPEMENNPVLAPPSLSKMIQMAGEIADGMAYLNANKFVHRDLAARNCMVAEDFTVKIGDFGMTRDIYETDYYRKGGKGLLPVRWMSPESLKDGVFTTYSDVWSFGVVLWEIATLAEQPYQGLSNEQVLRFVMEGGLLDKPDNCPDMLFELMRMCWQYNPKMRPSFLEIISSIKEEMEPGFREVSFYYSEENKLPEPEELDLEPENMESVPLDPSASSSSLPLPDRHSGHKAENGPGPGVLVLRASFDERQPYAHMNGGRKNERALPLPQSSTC
Please respond with reported Signal activation Emax vs IGF11-16, PathHunter for every item in the list.
Field format: number, assumed ratio vs IGF11-16, no unit text.

Name the reported Signal activation Emax vs IGF11-16, PathHunter value associated with the binder IGF11-16 with alanine substitution of F at position 64 (CDR-H2) (antibody, mouse IgG1, V domains shown) VH: QIQLQQPGAELVKPGASVKLSCKAPGYTFTSYWMHWVKQRPGQGLEWIGETNPSNSVTNYNEKAKSKATLTVDKSSSTAYMQLSSLTSEDSAVYYCTIGRGRGFAYWGQGTLVTVSA VL: DIQMNQSPSSLSASLGDTITITCRASQNINFWLSWCQQKPGNIPKLLIYKASNLHTGVPSRFSGSGSGTDFTLTISSLQPEDIATYYCLQGQSYPYTFGGGTKLEIK
0.9

Name the reported Signal activation Emax vs IGF11-16, PathHunter value associated with the binder IGF11-16 with alanine substitution of S at position 56 (CDR-H2) (antibody, mouse IgG1, V domains shown) VH: QIQLQQPGAELVKPGASVKLSCKAPGYTFTSYWMHWVKQRPGQGLEWIGETNPSNAVTNYNEKFKSKATLTVDKSSSTAYMQLSSLTSEDSAVYYCTIGRGRGFAYWGQGTLVTVSA VL: DIQMNQSPSSLSASLGDTITITCRASQNINFWLSWCQQKPGNIPKLLIYKASNLHTGVPSRFSGSGSGTDFTLTISSLQPEDIATYYCLQGQSYPYTFGGGTKLEIK
1.1

Name the reported Signal activation Emax vs IGF11-16, PathHunter value associated with the binder IGF11-16 with alanine substitution of S at position 54 (CDR-H2) (antibody, mouse IgG1, V domains shown) VH: QIQLQQPGAELVKPGASVKLSCKAPGYTFTSYWMHWVKQRPGQGLEWIGETNPANSVTNYNEKFKSKATLTVDKSSSTAYMQLSSLTSEDSAVYYCTIGRGRGFAYWGQGTLVTVSA VL: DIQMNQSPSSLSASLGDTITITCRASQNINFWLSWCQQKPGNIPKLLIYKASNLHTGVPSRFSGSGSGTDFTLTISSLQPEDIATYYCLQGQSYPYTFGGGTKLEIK
1
